Target: T1, human claudin 6 (CLDN6) (human, UniProt P56747 1-220)
T1 construct: also called human CLDN6; hCLDN6
T1 sequence: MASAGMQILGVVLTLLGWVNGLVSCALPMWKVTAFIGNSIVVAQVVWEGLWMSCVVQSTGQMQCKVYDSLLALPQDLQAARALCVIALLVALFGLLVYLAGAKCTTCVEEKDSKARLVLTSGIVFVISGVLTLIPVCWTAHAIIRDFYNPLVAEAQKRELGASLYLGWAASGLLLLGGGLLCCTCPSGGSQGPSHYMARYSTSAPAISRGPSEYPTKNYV
Assay: flow cytometry, HEK293T-human CLDN6 cells; ratio to chBG87P
Reported Emax ratio to BG87P values for the following binders.
Answer with the value's number alone.

Binder	Readout Kind	Recorded Measurement
BG87P-Bz1 (antibody, V domains shown) VH: QVQLVQSGAEVKKPGASVKVSCKASGYSFTDYHINWVRQAPGQRLEWMGWIYPGSGYTKYNEKFKVRVTLTVDTSASTAYMELSSLRSEDTAVYFCARSGIYHYVSSYYFDHWGKGTTVTVSS VL: DIQMTQSPSTLSASVGDRVTITCKASQDVGTAVAWYQQKPGKSPKLLIYWASTRHTGVPSRFSGSGSGTEFTLTISSVQPDDFATYFCQQYSSYTFGGGTKVEIK	Emax ratio to BG87P	0.52
BG87P-26 (antibody, V domains shown) VH: QIQLVQSGAEVKKPGASVKVSCKASGYSFTDYHINWVRQAPGQRLEWMGWIYPGSGYTKYNEKFKGRVTITRDTSASTAYMELSSLRSEDTAVYFCARSGIYHYVSSYYFDHWGKGTTVTVSS VL: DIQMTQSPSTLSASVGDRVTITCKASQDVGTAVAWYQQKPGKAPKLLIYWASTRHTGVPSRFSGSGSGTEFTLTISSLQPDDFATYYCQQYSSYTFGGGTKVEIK	Emax ratio to BG87P	0.77

Query binder follows.
Asked: Given BG87P-Bz6 (antibody, V domains shown, also called BG87P-B26) VH: QIQLVQSGAEVKKPGASVKVSCKASGYSFTDYHINWVRQAPGQRLEWMGWIYPGSGYTKYNEKFKVRVTLTVDTSASTAYMELSSLRSEDTAVYFCARSGIYHYVSSYYFDHWGKGTTVTVSS VL: DIQMTQSPSTLSASVGDRVTITCKASQDVGTAVAWYQQKPGKAPKLLIYWASTRHTGVPSRFSGSGSGTEFTLTISSVQPDDFATYFCQQYSSYTFGGGTKVEIK , state its recorded Emax ratio to BG87P.
Given back: 0.75
